# SYSTEM_UNDER_TEST: 5-hydroxytryptamine receptor 1A (Homo sapiens, UniProt P08908)
# Sequence (P08908 whole entry): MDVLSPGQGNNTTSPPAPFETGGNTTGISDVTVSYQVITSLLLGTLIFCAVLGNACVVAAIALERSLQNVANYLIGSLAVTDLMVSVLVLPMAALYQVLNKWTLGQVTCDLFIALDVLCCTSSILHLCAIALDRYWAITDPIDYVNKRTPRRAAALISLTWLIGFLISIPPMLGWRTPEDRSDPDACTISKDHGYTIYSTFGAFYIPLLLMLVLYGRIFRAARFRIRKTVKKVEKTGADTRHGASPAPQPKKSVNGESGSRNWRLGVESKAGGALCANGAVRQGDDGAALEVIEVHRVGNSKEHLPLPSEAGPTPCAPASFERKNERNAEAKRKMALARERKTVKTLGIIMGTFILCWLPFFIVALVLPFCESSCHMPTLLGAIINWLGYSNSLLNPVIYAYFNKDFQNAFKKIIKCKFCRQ
# TEST_SUMMARY: Intrinsic activity at human 5-HT1A receptor expressed in CHO cells assessed as increase of serotonin-induced [35S]GTPgammaS binding
pEC50: −log10 of the molar value.
TEST_READOUT: pEC50

| MOLECULE | SYSTEM_UNDER_TEST | VALUE_MEASURED |
| --- | --- | --- |
| Cc1ccc(CNCC2(F)CCN(C(=O)c3cc4ccsc4s3)CC2)nc1 | 5-hydroxytryptamine receptor 1A (Homo sapiens, UniProt P08908) | 7.41 |

a. Cc1ccc(CNCC2(F)CCN(C(=O)c3scc4c3CCCC4)CC2)nc1
b. Cc1ccc(CNCC2(F)CCN(C(=O)c3cc4ccccc4o3)CC2)nc1
c. Cc1ccc(CNCC2(F)CCN(C(=O)c3cc(Br)cs3)CC2)nc1
Query: Kindly order the items shown according to pEC50, from the highest value down. // format: requested-order list of labels
Reply: c, b, a

1. Cc1ccc(CNCC2(F)CCN(C(=O)c3cc4sccc4s3)CC2)nc1
2. Cc1ccc(CNCC2(F)CCN(C(=O)C34CC5CC(CC(C5)C3)C4)CC2)nc1
3. Cc1ccc(CNCC2(F)CCN(C(=O)C34CC5CC(CC3C5)C4)CC2)nc1
4. Cc1ccc(CNCC2(F)CCN(C(=O)c3cccs3)CC2)nc1
Query: // sort entries: pEC50, high to low Would you mind listing the labels in the order asked for?
Reply: 2, 4, 3, 1
(2: 7.96, 4: 7.74, 3: 7.33, 1: 6.89)
